Endpoint: MIC. System: Cryptococcus neoformans. Items follow.
Endpoint: MIC (mg/L)

Example compounds with recorded MIC:
| Structure smiles | MIC (mg/L) |
| --- | --- |
| CCNC(=O)SC[C@@H](NC(=O)c1c(C)cc2c(c1O)-c1c(cc3c(c1O)C(=O)c1cc(OC)cc(O)c1C3=O)[C@H](O)[C@H]2O[C@@H]1O[C@H](C)[C@H](NC)[C@H](O[C@@H]2OC[C@@H](O)[C@H](O)[C@H]2O)[C@H]1O)C(=O)O | 3.1 |
| CN[C@@H]1[C@H](O[C@@H]2OC[C@@H](O)[C@H](O)[C@H]2O)[C@@H](O)[C@H](O[C@H]2c3cc(C)c(C(=O)NCc4nnn[nH]4)c(O)c3-c3c(cc4c(c3O)C(=O)c3cc(OC)cc(O)c3C4=O)[C@@H]2O)O[C@@H]1C | 3.1 |
| COc1cc(O)c2c(c1)C(=O)c1c(cc3c(c1O)-c1c(cc(C)c(C(=O)N[C@H](CSSC[C@@H](N)C(=O)O)C(=O)O)c1O)[C@H](O[C@@H]1O[C@H](C)[C@H](O)[C@H](O[C@@H]4OC[C@@H](O)[C@H](O)[C@H]4O)[C@H]1O)[C@H]3O)C2=O | 3.1 |

P: CN[C@@H]1[C@H](O[C@@H]2OC[C@@H](O)[C@H](O)[C@H]2O)[C@@H](O)[C@H](O[C@H]2c3cc(C)c(C(=O)N[C@H](Cc4ccccc4)C(=O)O)c(O)c3-c3c(cc4c(c3O)C(=O)c3cc(OC)cc(O)c3C4=O)[C@@H]2O)O[C@@H]1C
Q: CN[C@@H]1[C@H](O[C@@H]2OC[C@@H](O)[C@H](O)[C@H]2O)[C@@H](O)[C@H](O[C@H]2c3cc(C)c(C(=O)N[C@H](CCCCN)C(=O)O)c(O)c3-c3c(cc4c(c3O)C(=O)c3cc(OC)cc(O)c3C4=O)[C@@H]2O)O[C@@H]1C
API: POST /compare with P and Q ; response names the item with higher MIC. The response must carry the label of the picked entry.
Q

A: COc1cc(O)c2c(c1)C(=O)c1c(cc3c(c1O)-c1c(cc(C)c(C(=O)N[C@@H](CO)C(=O)O)c1O)[C@H](O[C@@H]1O[C@H](C)[C@H](O)[C@H](O[C@@H]4OC[C@@H](O)[C@H](O)[C@H]4O)[C@H]1O)[C@H]3O)C2=O
B: COc1cc(O)c2c(c1)C(=O)c1c(cc3c(c1O)-c1c(cc(C)c(C(=O)N[C@@H](C(=O)O)[C@H](C)O)c1O)[C@H](O[C@@H]1O[C@H](C)[C@H](O)[C@H](O[C@@H]4OC[C@@H](O)[C@H](O)[C@H]4O)[C@H]1O)[C@H]3O)C2=O
Which value of MIC is smaller, the one for A or the one for B ? Identify your pick by its label.
B

* * *

Tested on: Aspergillus fumigatus
Endpoint: MIC (µg/mL)

Solved entries (count: 3):
| Molecule | U | Endpoint result |
| --- | --- | --- |
| CN[C@@H]1[C@H](O[C@@H]2OC[C@@H](O)[C@H](O)[C@H]2O)[C@@H](O)[C@H](O[C@H]2c3cc(C)c(C(=O)NC(C(=O)O)C(F)(F)F)c(O)c3-c3c(cc4c(c3O)C(=O)c3cc(OC)cc(O)c3C4=O)[C@@H]2O)O[C@@H]1C (some centres unmarked) | µg/mL | 50 |
| COc1cc(O)c2c(c1)C(=O)c1c(cc3c(c1O)-c1c(cc(C)c(C(=O)N[C@H](CSSC[C@@H](N)C(=O)O)C(=O)O)c1O)[C@H](O[C@@H]1O[C@H](C)[C@H](O)[C@H](O[C@@H]4OC[C@@H](O)[C@H](O)[C@H]4O)[C@H]1O)[C@H]3O)C2=O | µg/mL | 6.3 |
| COc1cc(O)c2c(c1)C(=O)c1c(cc3c(c1O)-c1c(cc(C)c(C(=O)N[C@@H](C(=O)O)[C@H](C)O)c1O)[C@H](O[C@@H]1O[C@H](C)[C@H](O)[C@H](O[C@@H]4OC[C@@H](O)[C@H](O)[C@H]4O)[C@H]1O)[C@H]3O)C2=O | µg/mL | 12.5 |

I: COc1cc(O)c2c(c1)C(=O)c1c(cc3c(c1O)-c1c(cc(C)c(C(=O)N[C@H](C)C(=O)O)c1O)[C@H](O[C@@H]1O[C@H](C)[C@H](O)[C@H](O[C@@H]4OC[C@@H](O)[C@H](O)[C@H]4O)[C@H]1O)[C@H]3O)C2=O
II: CN[C@@H]1[C@H](O[C@@H]2OC[C@@H](O)[C@H](O)[C@H]2O)[C@@H](O)[C@H](O[C@H]2c3cc(C)c(C(=O)N[C@H](CN)C(=O)O)c(O)c3-c3c(cc4c(c3O)C(=O)c3cc(OC)cc(O)c3C4=O)[C@@H]2O)O[C@@H]1C
// compare: I vs II , metric MIC, want the smaller In your reply, give the label of the chosen option.
I

* * *

Test system: Cryptococcus neoformans
Endpoint: MIC (µg/mL)

Worked examples follow.
| Compound | MIC / µg/mL |
| --- | --- |
| CN[C@@H]1[C@H](O[C@@H]2OC[C@@H](O)[C@H](O)[C@H]2O)[C@@H](O)[C@H](O[C@H]2c3cc(C)c(C(=O)NC(C(=O)O)C(F)(F)F)c(O)c3-c3c(cc4c(c3O)C(=O)c3cc(OC)cc(O)c3C4=O)[C@@H]2O)O[C@@H]1C (stereo partly drawn) [Example 17] | 3.1 |
| CN[C@@H]1[C@H](O[C@@H]2OC[C@@H](O)[C@H](O)[C@H]2O)[C@@H](O)[C@H](O[C@H]2c3cc(C)c(C(=O)N[C@H](Cc4ccc(O)c(O)c4)C(=O)O)c(O)c3-c3c(cc4c(c3O)C(=O)c3cc(OC)cc(O)c3C4=O)[C@@H]2O)O[C@@H]1C [Example 13] | 25 |
| CN[C@@H]1[C@H](O[C@@H]2OC[C@@H](O)[C@H](O)[C@H]2O)[C@@H](O)[C@H](O[C@H]2c3cc(C)c(C(=O)N[C@H](CC(=O)O)C(=O)O)c(O)c3-c3c(cc4c(c3O)C(=O)c3cc(OC)cc(O)c3C4=O)[C@@H]2O)O[C@@H]1C [Example 16] | 6.3 |
| CN[C@@H]1[C@H](O[C@@H]2OC[C@@H](O)[C@H](O)[C@H]2O)[C@@H](O)[C@H](O[C@H]2c3cc(C)c(C(=O)N[C@@H](CO)C(=O)O)c(O)c3-c3c(cc4c(c3O)C(=O)c3cc(OC)cc(O)c3C4=O)[C@@H]2O)O[C@@H]1C [Example 14] | 12.5 |

1: COc1cc(O)c2c(c1)C(=O)c1c(cc3c(c1O)-c1c(cc(C)c(C(=O)N[C@H](C)C(=O)O)c1O)[C@H](O[C@@H]1O[C@H](C)[C@H](O)[C@H](O[C@@H]4OC[C@@H](O)[C@H](O)[C@H]4O)[C@H]1O)[C@H]3O)C2=O [Example 31]
2: CN[C@@H]1[C@H](O[C@@H]2OC[C@@H](O)[C@H](O)[C@H]2O)[C@@H](O)[C@H](O[C@H]2c3cc(C)c(C(=O)N[C@H](Cc4cnc[nH]4)C(=O)O)c(O)c3-c3c(cc4c(c3O)C(=O)c3cc(OC)cc(O)c3C4=O)[C@@H]2O)O[C@@H]1C [Example 19]
Lab log: flag the item ( 1 or 2 ) with the smaller MIC figure. Provide the label of your selected option as the answer.
1
(1: 3.1 µg/mL, 2: 12.5 µg/mL)

* * *

Observed MIC for Aspergillus fumigatus, reported per entry below.
Endpoint: MIC (µg/mL)

Field: example entries. Status: answers known.
| Structure smiles | MIC [µg/mL] |
| --- | --- |
| CN[C@@H]1[C@H](O[C@@H]2OC[C@@H](O)[C@H](O)[C@H]2O)[C@@H](O)[C@H](O[C@H]2c3cc(C)c(C(=O)N[C@H](Cc4ccccc4)C(=O)O)c(O)c3-c3c(cc4c(c3O)C(=O)c3cc(OC)cc(O)c3C4=O)[C@@H]2O)O[C@@H]1C | 6.3 |
| CCNC(=O)SC[C@@H](NC(=O)c1c(C)cc2c(c1O)-c1c(cc3c(c1O)C(=O)c1cc(OC)cc(O)c1C3=O)[C@H](O)[C@H]2O[C@@H]1O[C@H](C)[C@H](NC)[C@H](O[C@@H]2OC[C@@H](O)[C@H](O)[C@H]2O)[C@H]1O)C(=O)O | 3.1 |
| CN[C@@H]1[C@H](O[C@@H]2OC[C@@H](O)[C@H](O)[C@H]2O)[C@@H](O)[C@H](O[C@H]2c3cc(C)c(C(=O)N[C@H](CCCCN)C(=O)O)c(O)c3-c3c(cc4c(c3O)C(=O)c3cc(OC)cc(O)c3C4=O)[C@@H]2O)O[C@@H]1C | 6.3 |

P: CN[C@@H]1[C@H](O[C@@H]2OC[C@@H](O)[C@H](O)[C@H]2O)[C@@H](O)[C@H](O[C@H]2c3cc(C)c(C(=O)N[C@H](CC(=O)O)C(=O)O)c(O)c3-c3c(cc4c(c3O)C(=O)c3cc(OC)cc(O)c3C4=O)[C@@H]2O)O[C@@H]1C
Q: CN[C@@H]1[C@H](O[C@@H]2OC[C@@H](O)[C@H](O)[C@H]2O)[C@@H](O)[C@H](O[C@H]2c3cc(C)c(C(=O)NCc4nnn[nH]4)c(O)c3-c3c(cc4c(c3O)C(=O)c3cc(OC)cc(O)c3C4=O)[C@@H]2O)O[C@@H]1C
Select one. Lower MIC: P or Q Indicate which entry you chose by stating its label.
Q
